Every entry's value here was drawn from PubChem BioAssay (NCI).

I'd appreciate it if you could supply TGI values for the items below.
tested on: SK-OV-3 ovarian; assay: NCI tumour cell line growth inhibition, 48 h

INPUT: Quick check: TGI on SK-OV-3 ovarian, item "C/C(=N\Nc1nc2ccccc2n1C)c1cc2ccccc2cn1" ?
OUTPUT: 0.761 µM

INPUT: Lab note: need TGI for "C1CC[N-]CC1.CC(=N\O)/C(C)=N/O.CC(=N\O)/C(C)=N/O.OC1[CH-]CCCC1.[Co+2]" on SK-OV-3 ovarian, anyone have it?
OUTPUT: > 100 µM

INPUT: Param readout= TGI; system= SK-OV-3 ovarian; entry= "COc1ccc(CCn2c(=O)c3ccccc3n(C)c2=O)cc1" ; returns value.
OUTPUT: > 100 µM

INPUT: Requested read-out TGI, target or system SK-OV-3 ovarian, entry "COc1cnc2c(c1)C(=O)c1c-2n(CCCNCCO)c(=O)c2ccncc12"
OUTPUT: 61.3 µM

INPUT: Form: Entry = CN(Cc1cnc2nc(N)nc(N)c2n1)c1ccc(C(=O)NC(CO)CCCO)cc1 (stereo unspecified) | System = SK-OV-3 ovarian | TGI = ____
OUTPUT: > 100 µM

INPUT: Query TGI on SK-OV-3 ovarian for CC(C)CCCC(C)[C@H]1CCC2[C@@H]3CCC4Nc5c(cnn5-c5ccccc5)C[C@]4(C)C3CC[C@@]21C (stereo partly specified)
OUTPUT: > 100 µM
